Target: Man(a1-3)[Man(a1-6)]Man
Experiment: glycan array binding signal (z-score within array); higher = stronger binding
Details: glycan notation: IUPAC condensed, linker removed
Only a selection was taken, and the strongest signals are over-represented in it overall.
property_measured: glycan array binding signal (z-score)
One number for each entry.

AcfC (Vibrio cholerae), Q57410 (protein) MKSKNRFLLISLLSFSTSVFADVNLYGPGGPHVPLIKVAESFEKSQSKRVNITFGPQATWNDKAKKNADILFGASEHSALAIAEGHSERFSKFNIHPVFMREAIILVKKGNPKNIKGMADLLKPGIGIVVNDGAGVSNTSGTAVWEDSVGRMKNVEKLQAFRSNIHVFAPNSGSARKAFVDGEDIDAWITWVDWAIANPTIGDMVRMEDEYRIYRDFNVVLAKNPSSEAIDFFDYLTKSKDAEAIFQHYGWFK = -0.136

# context switch: different binder, same glycan array binding signal (z-score)
Please report the recorded glycan array binding signal (z-score) for Fap1 (Streptococcus parasanguis) (protein) KATSKGTEEKQDSVRENLDKMISEAEVLNDMAARKLITLDAEQQLELMKSLVATQSQLEATKNLIGDPNATVADLQIAYTTLGNNTQALGNELIKLNPNGQIYAVLNNTEASRAATLRSTTTGTKTTFTISDFSNGGTQYYWAGGNANNLKNPISSISAVYDSATGKISWTVEYDPTTILKSPALKTLKTYTGIYIDTSSDSKLSTPTNVLIDGAATNPVTNFYGNGSKGIEYVSKGTTKGVTKHTITFDTAFSGRANDLADLEIKMLAATTLSDPHFYEDGSKGNYGRYNGQTAPYVIANDSGTAIGGYQVSGVNADSIPSDTT .
0.624
